Test system: Salmonella typhi
Assay: Antibacterial activity against Salmonella typhi by two-fold agar dilution method
Type: functional, Salmonella enterica subsp. enterica serovar Typhi
Conditions: Salmonella enterica
Property: MIC (µg/mL)
Give just the numeric value; µg/mL need not be written.

### Prompt Which value of MIC has been reported for C/C(=N\c1ccc(C(=O)O)cc1)C1=C(O)[C@H](N)[C@@H]2Cc3c(c(O)c4c(O)c(C)ccc4c3C)C(=O)[C@]2(O)C1=O.Cl in the records?
### Response 1.5

### Prompt // MIC lookup, key: C/C(=N\c1ccc(Cl)cc1)C1=C(O)[C@H](N)[C@@H]2Cc3c(c(O)c4c(O)c(C)ccc4c3C)C(=O)[C@]2(O)C1=O.Cl
### Response 3.1

### Prompt Which MIC value is on record for C/C(=N\NC(=O)c1ccco1)C1=C(O)[C@H](N)[C@@H]2Cc3c(c(O)c4c(O)c(C)ccc4c3C)C(=O)[C@]2(O)C1=O.Cl (stereo in doubt) ?
### Response 25

### Prompt Any idea what its MIC is? The compound is C/C(=N\c1ccc(O)cc1)C1=C(O)[C@H](N)[C@@H]2Cc3c(c(O)c4c(O)c(C)ccc4c3C)C(=O)[C@]2(O)C1=O.Cl
### Response 6.2

### Prompt # input compound: C/C(=N\N1CCOCC1)C1=C(O)[C@H](N)[C@@H]2Cc3c(c(O)c4c(O)c(C)ccc4c3C)C(=O)[C@]2(O)C1=O.Cl ; wanted: its MIC
### Response 3.1

###

Tested on: Proteus mirabilis
Assay: Antibacterial activity against Proteus mirabilis by two-fold agar dilution method
Format: functional
Property: MIC (µg/mL)
Quick note: give the figure in µg/mL, leave out the unit.

Use the examples below as a reference point.
C/C(=N\NC(=O)c1ccncc1)C1=C(O)[C@H](N)[C@@H]2Cc3c(c(O)c4c(O)c(C)ccc4c3C)C(=O)[C@]2(O)C1=O.Cl (stereo in doubt) ... 12.5
C/C(=N\N(C)C)C1=C(O)[C@H](N)[C@@H]2Cc3c(c(O)c4c(O)c(C)ccc4c3C)C(=O)[C@]2(O)C1=O.Cl ... 6.2
C/C(=N\NC(=N)N)C1=C(O)[C@H](N)[C@@H]2Cc3c(c(O)c4c(O)c(C)ccc4c3C)C(=O)[C@]2(O)C1=O.Cl ... 12.5
CCCC(=O)N/N=C(\C)C1=C(O)[C@H](N)[C@@H]2Cc3c(c(O)c4c(O)c(C)ccc4c3C)C(=O)[C@]2(O)C1=O.Cl ... 12.5

### Prompt # get_value(readout= MIC, system= Proteus mirabilis) for C/C(=N\c1ccc(Cl)cc1)C1=C(O)[C@H](N)[C@@H]2Cc3c(c(O)c4c(O)c(C)ccc4c3C)C(=O)[C@]2(O)C1=O.Cl
### Response 3.1

### Prompt # value lookup — system Proteus mirabilis, readout MIC, item C/C(=N\NC(=O)c1ccc(N)cc1)C1=C(O)[C@H](N)[C@@H]2Cc3c(c(O)c4c(O)c(C)ccc4c3C)C(=O)[C@]2(O)C1=O.Cl (stereo in doubt)
### Response 12.5

###

Consider the following molecules and their measured MIC readings.
Tested on: Salmonella typhi
Experiment: Antibacterial activity against Salmonella typhi by two-fold agar dilution method
Format: functional, Salmonella enterica subsp. enterica serovar Typhi
Conditions: Salmonella enterica

Consider the following illustrative entries.
C/C(=N\N1CCN(C)CC1)C1=C(O)[C@H](N)[C@@H]2Cc3c(c(O)c4c(O)c(C)ccc4c3C)C(=O)[C@]2(O)C1=O.Cl ... 3.1 µg/mL
C=CCNC(=O)N/N=C(\C)C1=C(O)[C@H](N)[C@@H]2Cc3c(c(O)c4c(O)c(C)ccc4c3C)C(=O)[C@]2(O)C1=O.Cl ... 12.5 µg/mL
C/C(=N\NC(=O)c1ccc(O)cc1)C1=C(O)[C@H](N)[C@@H]2Cc3c(c(O)c4c(O)c(C)ccc4c3C)C(=O)[C@]2(O)C1=O.Cl (stereo in doubt) ... 25 µg/mL
CNC(=O)N/N=C(\C)C1=C(O)[C@H](N)[C@@H]2Cc3c(c(O)c4c(O)c(C)ccc4c3C)C(=O)[C@]2(O)C1=O.Cl ... 25 µg/mL
C/C(=N\c1ccc(CC(=O)O)cc1)C1=C(O)[C@H](N)[C@@H]2Cc3c(c(O)c4c(O)c(C)ccc4c3C)C(=O)[C@]2(O)C1=O.Cl ... 1.5 µg/mL
C/C(=N\N1CCOC1=O)C1=C(O)[C@H](N)[C@@H]2Cc3c(c(O)c4c(O)c(C)ccc4c3C)C(=O)[C@]2(O)C1=O.Cl ... 25 µg/mL
CCCC(=O)N/N=C(\C)C1=C(O)[C@H](N)[C@@H]2Cc3c(c(O)c4c(O)c(C)ccc4c3C)C(=O)[C@]2(O)C1=O.Cl ... 12.5 µg/mL
C/C(=N\c1ccc(S(N)(=O)=O)cc1)C1=C(O)[C@H](N)[C@@H]2Cc3c(c(O)c4c(O)c(C)ccc4c3C)C(=O)[C@]2(O)C1=O.Cl ... 0.7 µg/mL
C/C(=N\NC(=O)CC#N)C1=C(O)[C@H](N)[C@@H]2Cc3c(c(O)c4c(O)c(C)ccc4c3C)C(=O)[C@]2(O)C1=O.Cl ... 12.5 µg/mL
C/C(=N\c1ccc(Br)cc1)C1=C(O)[C@H](N)[C@@H]2Cc3c(c(O)c4c(O)c(C)ccc4c3C)C(=O)[C@]2(O)C1=O.Cl ... 3.1 µg/mL

### Prompt Please look up its MIC: C/C(=N\c1ccc(F)cc1)C1=C(O)[C@H](N)[C@@H]2Cc3c(c(O)c4c(O)c(C)ccc4c3C)C(=O)[C@]2(O)C1=O.Cl
### Response 1.5 µg/mL

### Prompt GET /values?readout=MIC&item= CC(=O)N/N=C(\C)C1=C(O)[C@H](N)[C@@H]2Cc3c(c(O)c4c(O)c(C)ccc4c3C)C(=O)[C@]2(O)C1=O.Cl
### Response 6.2 µg/mL

### Prompt So what's the measured MIC for this one? C/C(=N\NC(=O)Cc1ccccc1)C1=C(O)[C@H](N)[C@@H]2Cc3c(c(O)c4c(O)c(C)ccc4c3C)C(=O)[C@]2(O)C1=O.Cl
### Response 12.5 µg/mL

### Prompt Find the recorded MIC belonging to C/C(=N\NCCN(C)C)C1=C(O)[C@H](N)[C@@H]2Cc3c(c(O)c4c(O)c(C)ccc4c3C)C(=O)[C@]2(O)C1=O.Cl and report it.
### Response 25 µg/mL

### Prompt For C/C(=N\NC(=O)Nc1ccccc1Cl)C1=C(O)[C@H](N)[C@@H]2Cc3c(c(O)c4c(O)c(C)ccc4c3C)C(=O)[C@]2(O)C1=O.Cl , what is its reported MIC?
### Response 50 µg/mL

### Prompt MIC lookup needed for C/C(=N\NC(=O)c1ccccc1O)C1=C(O)[C@H](N)[C@@H]2Cc3c(c(O)c4c(O)c(C)ccc4c3C)C(=O)[C@]2(O)C1=O.Cl , thanks.
### Response > 100 µg/mL

### Prompt Give its MIC value. Item: C/C(=N\NC(N)=O)C1=C(O)[C@H](N)[C@@H]2Cc3c(c(O)c4c(O)c(C)ccc4c3C)C(=O)[C@]2(O)C1=O.Cl
### Response 6.2 µg/mL

### Prompt What does the record list as MIC for C/C(=N\NC(=O)c1ccncc1)C1=C(O)[C@H](N)[C@@H]2Cc3c(c(O)c4c(O)c(C)ccc4c3C)C(=O)[C@]2(O)C1=O.Cl (stereo in doubt) ?
### Response 12.5 µg/mL

### Prompt For the molecule shown here, COc1ccc(/N=C(\C)C2=C(O)[C@H](N)[C@@H]3Cc4c(c(O)c5c(O)c(C)ccc5c4C)C(=O)[C@]3(O)C2=O)cc1.Cl , give the reported MIC.
### Response 3.1 µg/mL

### Prompt Which MIC is listed for C/C(=N\N1CCN(CCO)CC1)C1=C(O)[C@H](N)[C@@H]2Cc3c(c(O)c4c(O)c(C)ccc4c3C)C(=O)[C@]2(O)C1=O.Cl ?
### Response 1.56 µg/mL

### Prompt Query (molecule): CCCNC(=O)N/N=C(\C)C1=C(O)[C@H](N)[C@@H]2Cc3c(c(O)c4c(O)c(C)ccc4c3C)C(=O)[C@]2(O)C1=O.Cl ; field requested: MIC
### Response 6.2 µg/mL

### Prompt Consider the molecule shown here: C/C(=N\c1ccc(C)cc1)C1=C(O)[C@H](N)[C@@H]2Cc3c(c(O)c4c(O)c(C)ccc4c3C)C(=O)[C@]2(O)C1=O.Cl What is its recorded MIC?
### Response 3.1 µg/mL

### Prompt Look up MIC for this molecule: C/C(=N\Nc1ccccc1)C1=C(O)[C@H](N)[C@@H]2Cc3c(c(O)c4c(O)c(C)ccc4c3C)C(=O)[C@]2(O)C1=O.Cl
### Response 25 µg/mL

### Prompt For the molecule shown here, CC(=O)NS(=O)(=O)c1ccc(/N=C(\C)C2=C(O)[C@H](N)[C@@H]3Cc4c(c(O)c5c(O)c(C)ccc5c4C)C(=O)[C@]3(O)C2=O)cc1.Cl , give the reported MIC.
### Response 1.5 µg/mL

### Prompt Requested read-out: MIC. Entry: C/C(=N\c1ccccc1)C1=C(O)[C@H](N)[C@@H]2Cc3c(c(O)c4c(O)c(C)ccc4c3C)C(=O)[C@]2(O)C1=O.Cl
### Response 6.2 µg/mL
